The compounds listed here are annotated with their VF.
Test system: Rattus norvegicus
Assay: Antagonism of Ventricular Fibrilloflutter (VF) evoked by coronary artery ligation in the rat measured at 2 mg/kg dose
Type: functional, Heart

- compound: "CN(C)C1[C@H](O)C[C@H]2[C@@H]3CCc4cc(OCC(O)CNC(C)(C)C)ccc4[C@H]3CC[C@]12C (stereo partly specified)"
  VF [%]: 0
- compound: "CN(C)C1[C@H](O)C[C@H]2[C@@H]3CCc4cc(O)ccc4[C@H]3CC[C@]12C (stereo partly specified)"
  VF [%]: 0
- compound: "CNC1[C@H](O)C[C@H]2[C@@H]3CCc4cc(OCC(O)CNC(C)(C)C)ccc4[C@H]3CC[C@]12C (stereo partly specified)"
  VF [%]: 0
- compound: "CNC1CC[C@H]2[C@@H]3CCc4cc(OCC(O)CNC(C)(C)C)ccc4[C@H]3CC[C@]12C (stereo partly specified)"
  VF [%]: 0
- compound: "CC(=O)Nc1ccc(OCC(O)CNC(C)C)cc1 (stereo unspecified)"
  VF [%]: 80
- compound: "CC(C)NCC(O)COc1ccc2c(c1)CC[C@@H]1[C@@H]2CC[C@]2(C)C(N(C)C)CC[C@@H]12 (stereo partly specified)"
  VF [%]: 14
